Tested on: A549/ATCC NSCLC
Experiment: NCI-60 one-dose screen, 48 h
Details: 10 µM unless noted
Description: Growth inhibition of the A549/ATCC human Non-Small Cell Lung tumor cell line is measured as a screen for anti-cancer activity. Cells are grown in 96 well plates and exposed to the test compound for 48 hours. Compounds are tested at a single concentration, which is 10^-5 M for most compounds. The reported endpoint is percent growth (GI% or GIPRCNT), where numbers from 0 - 100% represent growth inhibition, and numbers from -100% - 0 represent cell death. […]
This is part of a sample that, as a whole, favours compounds with a hit. Of some 83,000 tested, about 20% had one in any assay. Active and inactive are the calls of the source. Rule for the calls: active = growth percent below 10; inactive = the rest.
Labels: active, inactive

[
  {
    "compound": "Oc1c(CN2CCCC2)cc(COCc2ccc(Br)cc2)c2cccnc12",
    "labelClass": "active"
  },
  {
    "compound": "Cc1ccc(-n2c(-c3ccccc3)c(-c3ccccc3)c3c(SCC(=O)n4[nH]c(N)cc4=O)ncnc32)cc1",
    "labelClass": "inactive"
  },
  {
    "compound": "Cc1cc(O)c(C2=NN(c3ccc(S(N)(=O)=O)cc3)C(c3ccccc3Cl)C2)cc1Cl (stereo not given)",
    "labelClass": "inactive"
  },
  {
    "compound": "Cc1ccc(N(C(=O)CCc2c[nH]c3ccccc23)[C@H](C(=O)Nc2ccc(Cl)cc2)c2cccc([N+](=O)[O-])c2)cc1",
    "labelClass": "inactive"
  },
  {
    "compound": "O=C(O)c1ccc2c(c1)CCC2",
    "labelClass": "inactive"
  }
]
